# System: FB
# Test: Euclidean distance of Cell Painting phenotypic profile (signed KS, 77 features) to DMSO centroid (dimensionless distance); 5 or 10 uM (library dependent); higher = stronger phenotypic change vs DMSO (phenoactivity)
# Condition context: 48 h
Where a name gives a salt, the structure may show the parent alone.

{"columns": ["Compound", "Measurement target", "Euclidean distance"],
 "data": [
  ["CCOc1cc(N)c([N+](=O)[O-])cc1C(=O)NC1CCN(CC2CC=CCC2)CC1 (centres undefined) [Cinitapride Hydrogen Tartrate]", "FB", 1.21],
  ["N[C@H](C(=O)O)[C@H](O)c1ccc(O)c(O)c1", "FB", 0.744],
  ["Cn1cnc2c1c(=O)[nH]c(=O)n2C", "FB", 0.792],
  ["NC12CC3CC(CC(C3)C1)C2 [Amantadine HCl]", "FB", 0.961],
  ["CCCCCCCCOc1ccccc1C(=O)Nc1ccc(C(=O)OCC[N+](C)(CC)CC)cc1 [Otilonium Bromide]", "FB", 1.24],
  ["CC[C@@]1(O)C(=O)OCc2c1cc1n(c2=O)Cc2cc3c(CN(C)C)c(O)ccc3nc2-1", "FB", 3.77],
  ["CN[C@@H](C)C(=O)N[C@H](C(=O)N1CCC[C@H]1c1nc(C(=O)c2ccc(F)cc2)cs1)C1CCCCC1", "FB", 1.22],
  ["COc1ccc(CN2C3CC2CN(c2ccc(-c4cc(OCC(C)(C)O)cn5ncc(C#N)c45)cn2)C3)cn1", "FB", 1.56],
  ["CNCC(=O)O", "FB", 1.13],
  ["CNC(=O)c1ccc2cc([C@@]3(O)CCn4cncc43)ccc2c1", "FB", 1.1],
  ["C[C@H]1COc2c(N3CCN(C)CC3)c(F)cc3c(=O)c(C(=O)O)cn1c23 [Levofloxacin]", "FB", 0.922],
  ["C[C@]12C=CC(=O)C=C1CC[C@H]1[C@@H]3C[C@@H](O)[C@](O)(C(=O)CO)[C@@]3(C)C[C@H](O)[C@@]12F", "FB", 1.81],
  ["COc1ccc(C(=O)c2ccccc2)c(O)c1", "FB", 1.34],
  ["N[C@@H]1CCCC[C@H]1N.O=C([O-])C(=O)[O-].[Pt+2]", "FB", 3.29],
  ["CN(C)CCCCC(=O)Nc1ccc(NC(=S)NC(=O)c2ccc(C(C)(C)C)cc2)cc1", "FB", 3.01],
  ["CC(C)c1nc(N(C)S(C)(=O)=O)nc(-c2ccc(F)cc2)c1/C=C/[C@@H](O)C[C@@H](O)CC(=O)O", "FB", 1.71],
  ["CC(C)(C)c1cc(C(C)(C)C)c(NC(=O)c2c[nH]c3ccccc3c2=O)cc1O", "FB", 0.989],
  ["N[C@@H](CC(=O)O)C(=O)O", "FB", 0.809],
  ["Cc1ncc([N+](=O)[O-])n1C", "FB", 0.783],
  ["C[C@@H](O)[C@H]1C(=O)N2C(C(=O)[O-])=C(SC3Cn4cnc[n+]4C3)[C@H](C)[C@H]12 (some centres undefined)", "FB", 1.22],
  ["Cc1cc(Nc2ncc(Cl)c(Nc3ccccc3S(=O)(=O)C(C)C)n2)c(OC(C)C)cc1C1CCNCC1", "FB", 6.34],
  ["CCCc1nc(C)c2c(=O)nc(-c3cc(S(=O)(=O)N4CCN(CC)CC4)ccc3OCC)[nH]n12 [Vardenafil HCl Trihydrate]", "FB", 1.02],
  ["CCNC(=O)c1noc(-c2cc(C(C)C)c(O)cc2O)c1-c1ccc(CN2CCOCC2)cc1", "FB", 2.77],
  ["Cc1nc(Nc2ccc(F)cc2)nc(N2CCc3ccccc3C2C)c1C (centres undefined) [Revaprazan Hydrochloride]", "FB", 1.28],
  ["Cc1cn[nH]c1 [Fomepizole]", "FB", 0.868],
  ["CN1[C@@H]2CC[C@H]1C[C@@H](OC(=O)c1c[nH]c3ccccc13)C2 [Tropisetron HCl]", "FB", 1.16],
  ["OC(c1cc(C(F)(F)F)nc2c(C(F)(F)F)cccc12)C1CCCCN1 (centres undefined) [Mefloquine HCl]", "FB", 2.46],
  ["COc1ccc(CCc2nc3cc(-c4c(C)noc4C)ccc3n2C[C@H](C)N2CCOCC2)cc1Cl", "FB", 1.73],
  ["C#CCN(C)Cc1ccccc1 [Pargyline hydrochloride]", "FB", 1.16],
  ["Cn1nnc2c(C(N)=O)ncn2c1=O [Temozolomide]", "FB", 0.972],
  ["COCCCOc1cc(C[C@@H](C[C@H](N)[C@@H](O)C[C@H](C(=O)NCC(C)(C)C(N)=O)C(C)C)C(C)C)ccc1OC [Aliskiren Hemifumarate]", "FB", 0.622],
  ["COc1ccc(-c2ccc3c(N4CCOCC4)nc(N4C[C@@H](C)O[C@@H](C)C4)nc3n2)cc1CO", "FB", 3.61],
  ["Cn1cc(Nc2nccc(N3C[C@H]4CC[C@@H](C3)N4C(=O)[C@@H]3CC3(F)F)n2)cn1", "FB", 2.16],
  ["CNC(=O)[C@H](Cc1c[nH]c2ccccc12)NC(=O)[C@@H](CC(=O)NO)CC(C)C", "FB", 0.836]
]}
